# pIC50 annotations
target: human androgen receptor (Homo sapiens (Human), UniProt P10275); assay: Antagonist activity for AR (pMMTV-luc reporter transcription activity in transfected COS-7 cells, DHT 1 nmol/L); conditions: 50% transcription activity inhibition concentration; COS-7 cells with pMMTV-luc and pEX-hAR, DHT 1 nmol/L, 24 hours
Sequence (P10275 whole entry): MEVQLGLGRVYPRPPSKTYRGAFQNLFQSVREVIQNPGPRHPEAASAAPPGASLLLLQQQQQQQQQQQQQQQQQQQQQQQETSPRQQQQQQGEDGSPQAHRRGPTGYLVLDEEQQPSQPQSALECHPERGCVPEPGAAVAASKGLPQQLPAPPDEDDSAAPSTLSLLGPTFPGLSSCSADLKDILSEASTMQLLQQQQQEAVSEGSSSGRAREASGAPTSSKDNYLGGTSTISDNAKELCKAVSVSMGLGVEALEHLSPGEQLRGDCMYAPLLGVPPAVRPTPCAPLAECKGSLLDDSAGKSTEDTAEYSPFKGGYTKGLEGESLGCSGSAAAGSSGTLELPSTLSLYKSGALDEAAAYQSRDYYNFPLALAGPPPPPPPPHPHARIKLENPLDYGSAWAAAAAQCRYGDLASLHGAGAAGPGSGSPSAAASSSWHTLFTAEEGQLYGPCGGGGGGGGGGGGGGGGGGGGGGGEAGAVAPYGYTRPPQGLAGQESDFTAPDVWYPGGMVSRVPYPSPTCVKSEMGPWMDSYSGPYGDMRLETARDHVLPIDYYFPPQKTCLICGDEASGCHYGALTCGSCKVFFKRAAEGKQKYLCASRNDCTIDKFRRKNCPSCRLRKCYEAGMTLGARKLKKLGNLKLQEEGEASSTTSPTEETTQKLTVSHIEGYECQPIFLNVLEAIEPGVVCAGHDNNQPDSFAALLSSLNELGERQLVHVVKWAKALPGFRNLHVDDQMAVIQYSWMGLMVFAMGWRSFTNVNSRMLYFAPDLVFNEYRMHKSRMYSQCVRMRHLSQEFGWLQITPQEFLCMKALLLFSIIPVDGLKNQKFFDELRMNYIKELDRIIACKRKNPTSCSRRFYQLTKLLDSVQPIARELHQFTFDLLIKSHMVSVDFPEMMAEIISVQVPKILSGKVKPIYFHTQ
pIC50: −log10 of the molar value.

COMPOUND: CC(C)(COc1ccc(Nc2ncnc3c2CCN(c2ccc(C#N)c(C(F)(F)F)c2)C3)nc1)n1cnnn1 [Example 17]
TARGET_SYSTEM: human androgen receptor (Homo sapiens (Human), UniProt P10275)
CENSORING_OPERATOR: =
pIC50: 6.77
//
COMPOUND: N#Cc1ccc(N2CCc3c(ncnc3Nc3ncns3)C2)cc1C(F)(F)F [Example 1]
TARGET_SYSTEM: human androgen receptor (Homo sapiens (Human), UniProt P10275)
CENSORING_OPERATOR: =
pIC50: 7.10
//
COMPOUND: N#Cc1ccc(N2CCc3c(ncnc3Nc3ccc(C(=O)NCC(F)(F)F)nn3)C2)cc1C(F)(F)F [Example 24]
TARGET_SYSTEM: human androgen receptor (Homo sapiens (Human), UniProt P10275)
CENSORING_OPERATOR: =
pIC50: 7.15
//
COMPOUND: CC(C)(O)c1ccc(Nc2ncnc3c2CCN(c2ccc(C#N)c(C(F)(F)F)c2)C3)nc1F [Example 5]
TARGET_SYSTEM: human androgen receptor (Homo sapiens (Human), UniProt P10275)
CENSORING_OPERATOR: =
pIC50: 6.72
//
COMPOUND: CC(C)(O)c1cnc(Nc2ncnc3c2CCN(c2ccc(C#N)c(Cl)c2)C3)cc1F [Example 45]
TARGET_SYSTEM: human androgen receptor (Homo sapiens (Human), UniProt P10275)
CENSORING_OPERATOR: =
pIC50: 6.03
//
COMPOUND: CC(C)(O)CNC(=O)c1cnc(Nc2ncnc3c2CCN(c2ccc(C#N)c(C(F)(F)F)c2)C3)nc1 [Example 34]
TARGET_SYSTEM: human androgen receptor (Homo sapiens (Human), UniProt P10275)
CENSORING_OPERATOR: =
pIC50: 6.15
//
COMPOUND: CC(C)Oc1ccc(Nc2ncnc3c2CN(c2ccc(C#N)c(C(F)(F)F)c2)CC3)cc1 [Comparative Example 2, reference compound]
TARGET_SYSTEM: human androgen receptor (Homo sapiens (Human), UniProt P10275)
CENSORING_OPERATOR: <
pIC50: 5.00
//
COMPOUND: FC(F)(F)c1ccc(Nc2ncnc3c2CCN(c2ncccc2Cl)C3)cc1 [Comparative Example 4, reference compound]
TARGET_SYSTEM: human androgen receptor (Homo sapiens (Human), UniProt P10275)
CENSORING_OPERATOR: <
pIC50: 5.00

---

target: human androgen receptor (Homo sapiens (Human), UniProt P10275); assay: Antagonist activity for AR (pMMTV-luc reporter transcription activity in transfected COS-7 cells, DHT 1 nmol/L); conditions: 50% transcription activity inhibition concentration; COS-7 cells with pMMTV-luc and pEX-hAR, DHT 1 nmol/L, 24 hours
pIC50: −log10 of the molar value.
METRIC: pIC50

MOLECULE: N#Cc1ccc(N2CCc3c(ncnc3Nc3ccc(C(=O)NCc4nc(C(F)(F)F)cs4)cn3)C2)cc1C(F)(F)F [Example 36]
VALUE: 6.77
--
MOLECULE: C[C@@H](NC(=O)c1ccc(Nc2ncnc3c2CCN(c2ccc(C#N)c(C(F)(F)F)c2)C3)nc1)c1nnc(C(F)(F)F)o1 [Example 40]
VALUE: 6.59
--
MOLECULE: CC(C)(COc1ccc(Nc2ncnc3c2CCN(c2ccc(C#N)c(C(F)(F)F)c2)C3)cn1)n1cnnn1 [Example 16]
VALUE: 6.68
--
MOLECULE: N#Cc1ccc(N2CCc3c(ncnc3Nc3ccc(C(=O)N[C@H]4CC[C@H](O)CC4)nn3)C2)cc1Cl [Example 29]
VALUE: 6.70
